- System: tubulin
- Construct: Purified tubulin is obtained from bovine brain cells as described in Hamel and Lin
- Measurement Protocol: Tubulin polymerization assay
- Format: biochemical, bovine
- Test Context: purified tubulin […], GTP-induced, 350 nm; final steady-state number for compounds other than 1A and 10A; read-out: IC50 for inhibition of tubulin polymerization
pIC50: −log10 of the molar value.
Property: pIC50

compound="COc1ccc(-c2sc3cc(OC)ccc3c2Oc2cc(OC)c(OC)c(OC)c2)cc1 [Compound 23B]" measurement_target=tubulin property=pIC50 qual== value_reported=5.85
compound="COc1cc(/C=C\\c2cc(OC)c(OC)c(OC)c2)ccc1N=[N+]=[N-] [Compound 30E]" measurement_target=tubulin property=pIC50 qual== value_reported=5.82
compound="COc1ccc(-c2sc3cc(OC)ccc3c2C(=O)c2ccc(OC)c(OC)c2)cc1 [Compound 4A]" measurement_target=tubulin property=pIC50 qual=< value_reported=4.40
compound="COc1cc(/C=C\\c2cc(OC)c(OC)c(OC)c2)ccc1[N+](=O)[O-] [Compound 27E]" measurement_target=tubulin property=pIC50 qual=< value_reported=4.40
compound="COc1ccc(-c2sc3ccccc3c2C(=O)c2cc(OC)c(OC)c(OC)c2)cc1 [Compound 16A]" measurement_target=tubulin property=pIC50 qual=< value_reported=4.40
compound="COc1ccc2c(c1)CCC=C2C(=O)c1cc(OC)c(OC)c(OC)c1 [Compound 26D]" measurement_target=tubulin property=pIC50 qual== value_reported=5.77
compound="COc1ccc(/C=C\\c2cc(OC)c(OC)c(OC)c2)cc1N=[N+]=[N-] [Compound 34E]" measurement_target=tubulin property=pIC50 qual== value_reported=5.89
compound="COc1ccc2c(c1)CCC=C2c1cc(OC)c(OC)c(OC)c1CO [Compound 25D]" measurement_target=tubulin property=pIC50 qual=< value_reported=4.40

Ref: patent US20010034454A1
